Data provenance is the RNAGym collection of RNA variant scans (doi:10.1073/pnas.2313332121).

B1: TPR 5TU (parent)
chain: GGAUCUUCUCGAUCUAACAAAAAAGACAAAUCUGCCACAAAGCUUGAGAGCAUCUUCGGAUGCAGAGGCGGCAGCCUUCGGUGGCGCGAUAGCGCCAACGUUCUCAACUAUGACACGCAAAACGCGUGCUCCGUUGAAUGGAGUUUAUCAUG

variants of: B1; test: polymerase ribozyme fitness, log enrichment relative to wild type (log ratio); higher = more active; in vitro selection for triplet polymerase activity
Variants at the floor of the assay were thinned out.
Category | rule: reported polymerase ribozyme fitness (log ratio) within range, see bucket 1: < -3; bucket 2: ≥ -3 and < -1; bucket 3: ≥ -1

Task item: State the band of C5A C103A
Reply: bucket 2

Task item: State the band of G74A A91U G117U G141U
Reply: bucket 1

Task item: State the band of A30C U53A G84A
Reply: bucket 1

Task item: State the band of A39U U139A
Reply: bucket 1

Task item: State the band of U53A A115G
Reply: bucket 3

Task item: State the band of C18G U146C
Reply: bucket 3

Task item: State the band of G58A A89U C96A A115G
Reply: bucket 2

Task item: State the band of A47G C63G G92U C93U
Reply: bucket 2

Task item: State the band of C36A A47C G59U
Reply: bucket 1

Task item: State the band of U9G A47C C57A A66C C87A A89U A120U A121U C123A C125U U144A
Reply: bucket 1

Task item: State the band of A28U G48U
Reply: bucket 1

Task item: State the band of C69A G70A
Reply: bucket 1

Task item: State the band of U55A U56A G59A
Reply: bucket 3

Task item: State the band of G92U G141A
Reply: bucket 2

Task item: State the band of C18A A20C U82C A122C
Reply: bucket 2

Task item: State the band of A40C C51A G86C U139C
Reply: bucket 1

Task item: State the band of C8U A22C A26C G50C C85A C116U C118A
Reply: bucket 1

Task item: State the band of A89C C96A A115G
Reply: bucket 2

Task item: State the band of C96G A122G U139G
Reply: bucket 3

Task item: State the band of C27A U33C G88C G141C
Reply: bucket 1

Task item: State the band of U45A U77G G83C U146A
Reply: bucket 1

Task item: State the band of A20U U56G G65A C76U C85A G141C U148C
Reply: bucket 1

Task item: State the band of A73G U148C
Reply: bucket 2

Task item: State the band of A40U A137U G140C
Reply: bucket 1

Task item: State the band of C76U A91U G92A
Reply: bucket 1

Task item: State the band of C35U C38G G86A G126A G136U
Reply: bucket 1

Task item: State the band of C76A G86U
Reply: bucket 2

Task item: State the band of A16G C18U A30U C35U U55A G71C C93U A97C C116A G141U
Reply: bucket 1

Task item: State the band of C85A U134C
Reply: bucket 3

Task item: State the band of G59A
Reply: bucket 3

Task item: State the band of C96U U148A
Reply: bucket 1

Task item: State the band of C35U A52C G81A G86U C95A
Reply: bucket 1

Task item: State the band of C5A A16C G50A C76U G86C U144G
Reply: bucket 1

Task item: State the band of A17G G84U G126A
Reply: bucket 2

Task item: State the band of A28C A30U A60C C75A C76U C93A C95G
Reply: bucket 1

Task item: State the band of C57G A91G G100A C123A C131A
Reply: bucket 1

Task item: State the band of G68A C96U C132G
Reply: bucket 1

Task item: State the band of U33A G80A
Reply: bucket 1

Task item: State the band of G50C C76U
Reply: bucket 2

Task item: State the band of C5A A47U C76G G94C U101G
Reply: bucket 1

Task item: State the band of C5A A37U
Reply: bucket 3

Task item: State the band of A16C A24G U56C U77C G86A U104G U139A A142G
Reply: bucket 1

Task item: State the band of U55G G59C A142C
Reply: bucket 1

Task item: State the band of C75U G92U G112C A113U C114G
Reply: bucket 1
